- measurement notes: Solubilization of Nile Red in water aided by the semi-solid polymer
- Type: physicochemical
- conditions: PBS with 10% semi-solid polymer, aqueous with cosolvent or surfactant or cyclodextrin, thermodynamic from solid; with addition of 10% semi-solid polymer (100 mg in 1 mL PBS)
value kind: solubility (µg/mL)
One number for each entry, in µg/mL.

Can you share its solubility? I mean this compound: CCN(CC)c1ccc2nc3c4ccccc4c(=O)cc-3oc2c1 [Nile Red] 3000
